// values below are reported ED50
Biological target: Thromboxane-A synthase (Homo sapiens) (UniProt P24557)
Sequence (P24557 whole entry): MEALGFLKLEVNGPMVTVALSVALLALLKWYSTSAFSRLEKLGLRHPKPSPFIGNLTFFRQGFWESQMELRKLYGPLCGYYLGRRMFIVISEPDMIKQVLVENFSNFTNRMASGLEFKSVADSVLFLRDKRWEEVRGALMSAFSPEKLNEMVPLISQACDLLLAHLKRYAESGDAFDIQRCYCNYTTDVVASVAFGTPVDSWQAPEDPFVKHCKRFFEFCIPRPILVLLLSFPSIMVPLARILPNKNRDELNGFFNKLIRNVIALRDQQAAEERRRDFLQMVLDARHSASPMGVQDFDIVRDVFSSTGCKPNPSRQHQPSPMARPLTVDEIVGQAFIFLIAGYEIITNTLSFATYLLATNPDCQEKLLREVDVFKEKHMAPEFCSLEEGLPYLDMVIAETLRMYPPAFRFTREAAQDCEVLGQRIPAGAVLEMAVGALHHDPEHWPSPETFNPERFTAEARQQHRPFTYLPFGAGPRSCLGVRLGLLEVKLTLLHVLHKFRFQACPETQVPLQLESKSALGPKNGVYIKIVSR
Experiment: Compound was tested in vitro for its ability to inhibit TXA2 biosynthesis in human microsomal platelets
Assay type: functional, microsomes
Conditions: Microsome

# molecule, ED50
rows = [
    ("O=C(O)c1cc2cc(Cc3ccc(Cl)nc3)ccc2o1", "> 10 µg/mL"),
    ("O=C(O)c1cc2cc(Cc3cccnc3Cl)ccc2o1", "0.1 µg/mL"),
    ("O=C(O)c1cc2cc(Cc3ccc[n+]([O-])c3)ccc2o1", "> 10 µg/mL"),
]

Read the next record carefully.
Input: GET /values?readout=ED50&item= CCCCC[C@H](O)/C=C/[C@H]1C2CC(N=N2)[C@@H]1C/C=C\CCCC(=O)O (some centres undefined)
Output: 0.03 µg/mL

###

Biological target: Thromboxane-A synthase (Homo sapiens) (UniProt P24557)
Assay: Compound was tested in vitro for its ability to inhibit TXA2 biosynthesis in human microsomal platelets
Type: functional, microsomes
Details: Microsome
Here, each record is paired with measured Relative potency data.

# compound, endpoint.value
data = [
    ("O=C(O)c1cc2cc(Cc3ccc(Cl)nc3)ccc2o1", "< 0.001"),
    ("O=C(O)c1cc2cc(Cc3cccnc3Cl)ccc2o1", 0.1),
    ("CCCCC[C@H](O)/C=C/[C@H]1C2CC(N=N2)[C@@H]1C/C=C\\CCCC(=O)O (some centres undefined)", 0.3),
]

With those in mind, consider the next compound.
Input: Report Relative potency for O=C(O)c1cc2cc(Cc3ccc[n+]([O-])c3)ccc2o1 please.
Output: < 0.001

###

Molecular target: Thromboxane-A synthase (Homo sapiens)
Assay: In vitro inhibition of TXA2 biosynthesis in human microsomal platelets
Type: functional, microsomes
Settings: Microsome
Listed next: entries and their corresponding ED50.
Respond numerically; units are µg/mL and should not be typed.

// below: answered compounds
# molecular.string, unit.of.measure, ED50
measured = [
    ("O=C(O)c1cc2cc(CCc3cccnc3)ccc2o1", "µg/mL", 3),
    ("O=C(c1cccnc1)c1ccc2oc(C(=O)O)cc2c1", "µg/mL", 3),
    ("O=C(O)c1cc2cc(Cc3cccnc3)ccc2o1", "µg/mL", 0.01),
    ("C/C(=C\\c1ccc(Cc2cccnc2)cc1)C(=O)O", "µg/mL", 0.03),
]

Input: Find ED50 (Thromboxane-A synthase (Homo sapiens)) for the entry COc1cc(Cc2cccnc2)cc2cc(C(=O)O)oc12
Output: 0.03

Input: Look up ED50 with Thromboxane-A synthase (Homo sapiens) for this compound: Cc1cc(Cc2cccnc2)cc2cc(C(=O)O)oc12
Output: 0.03

Input: For Thromboxane-A synthase (Homo sapiens), provide ED50 of O=C(O)c1cc2ccc(CCc3cccnc3)cc2o1 please.
Output: 3

Input: Hi! What's the reported ED50 for O=C(O)c1cc2cc(-c3cccnc3)ccc2o1 on Thromboxane-A synthase (Homo sapiens)?
Output: 0.03

Input: Identify the measured ED50 of Cc1c(C(=O)O)oc2ccc(Cc3cccnc3)cc12 for Thromboxane-A synthase (Homo sapiens).
Output: 0.03

Input: Value wanted: ED50 (Thromboxane-A synthase (Homo sapiens)) of entry O=C(O)c1cc2cc(Cc3cccnc3)cc(Br)c2o1
Output: 0.03

Input: For Thromboxane-A synthase (Homo sapiens), provide ED50 of O=C(O)c1cc2ccc(Cc3cccnc3)cc2o1 please.
Output: 0.03

Input: For Thromboxane-A synthase (Homo sapiens), provide ED50 of NC(=O)c1cc2cc(Cc3cccnc3)ccc2o1 please.
Output: 0.3

###

Target: UniProtKB P24557
Assay: In vitro inhibition of TXA2 biosynthesis in human microsomal platelets relative to Sodium Furegrelate
Format: functional, microsomes
Conditions: Microsome
measurement.name: Relative potency
Could you respond with only the numeric value?

Sample answers from the record:
# molecular.string, Relative potency
records = [
    ("O=C(c1cccnc1)c1ccc2oc(C(=O)O)cc2c1", 0.003),
    ("O=C(O)c1cc2cc(-c3cccnc3)ccc2o1", 0.3),
    ("C/C(=C\\c1ccc(Cc2cccnc2)cc1)C(=O)O", 0.3),
]

Input: # Relative potency lookup, item O=C(O)c1cc2ccc(Cc3cccnc3)cc2o1
Output: 0.3

Input: # query: Relative potency of entry O=C(O)c1cc2cc(CCc3cccnc3)ccc2o1
Output: 0.003

Input: Form field: reported Relative potency of Cc1c(C(=O)O)oc2ccc(Cc3cccnc3)cc12
Output: 0.3

Input: Relative potency for COc1cc(Cc2cccnc2)cc2cc(C(=O)O)oc12 ?
Output: 0.3

Input: Any idea what its Relative potency is? The compound is Cc1cc(Cc2cccnc2)cc2cc(C(=O)O)oc12
Output: 0.3

Input: Which measured Relative potency value corresponds to O=C(O)c1cc2ccc(CCc3cccnc3)cc2o1 ?
Output: 0.003

Input: What value of measured Relative potency is listed for NC(=O)c1cc2cc(Cc3cccnc3)ccc2o1 ?
Output: 0.003

Input: Which Relative potency reading was recorded for the compound O=C(O)c1cc2cc(Cc3cccnc3)cc(Br)c2o1 ?
Output: 0.3
